Listing of recorded pIC50 by entry.
target: Fatty-acid amide hydrolase 1 (Mus musculus, UniProt O08914)
Sequence (O08914 whole entry): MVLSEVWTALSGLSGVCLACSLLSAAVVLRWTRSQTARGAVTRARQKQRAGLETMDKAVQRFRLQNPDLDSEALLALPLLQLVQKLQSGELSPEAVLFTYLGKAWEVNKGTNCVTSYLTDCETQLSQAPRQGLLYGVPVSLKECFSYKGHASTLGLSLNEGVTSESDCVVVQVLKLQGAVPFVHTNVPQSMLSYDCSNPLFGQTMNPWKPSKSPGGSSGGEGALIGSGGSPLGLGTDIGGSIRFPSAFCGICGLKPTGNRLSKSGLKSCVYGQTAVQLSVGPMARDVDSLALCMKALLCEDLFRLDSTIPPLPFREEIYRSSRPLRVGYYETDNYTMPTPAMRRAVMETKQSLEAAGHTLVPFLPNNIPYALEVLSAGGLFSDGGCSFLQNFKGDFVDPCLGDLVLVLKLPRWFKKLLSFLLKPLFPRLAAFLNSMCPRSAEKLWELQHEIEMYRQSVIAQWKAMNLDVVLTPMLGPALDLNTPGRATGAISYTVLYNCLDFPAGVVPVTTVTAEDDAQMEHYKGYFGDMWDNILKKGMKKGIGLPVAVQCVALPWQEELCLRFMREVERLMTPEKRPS
assayProcedure: Inhibitory potency of Fatty-acid amide hydrolase with Mouse brain membrane
Friendly reminder that pIC50 comes from taking -log10 of the concentration in mol/L.

compound: CCCCC/C=C\C/C=C\C/C=C\C/C=C\CCCCS(=O)(=O)F
pIC50: 9.96

Here's the next entry for you.
Query :: Notebook: pull reported pIC50 for Fatty-acid amide hydrolase 1 (Mus musculus, UniProt O08914), entry CCCCCCCCCCCCS(=O)(=O)F [DODECANESULFONYL FLUORIDE]
Result :: 8.70

----------
target: UniProtKB O08914
assayProcedure: Inhibitory potency of Fatty-acid amide hydrolase with Mouse brain membrane in the presence of PMSF
reportedProperty: IC50

Query :: For the compound "CCCCC/C=C\C/C=C\C/C=C\C/C=C\CCCCS(=O)(=O)NCCO" , what IC50 is on record?
Result :: ~10 µM
